Data credit: patent US20190328910A1

target_or_test_system: T1, αvβ6 integrin (purified) (UniProt P06756 31-992; P18564 22-707)
T1 construct: Purified integrin captured on plate by anti-αv antibody P2W7; also called purified integrin
T1 sequence (P06756 31-992, chain 1 of 2): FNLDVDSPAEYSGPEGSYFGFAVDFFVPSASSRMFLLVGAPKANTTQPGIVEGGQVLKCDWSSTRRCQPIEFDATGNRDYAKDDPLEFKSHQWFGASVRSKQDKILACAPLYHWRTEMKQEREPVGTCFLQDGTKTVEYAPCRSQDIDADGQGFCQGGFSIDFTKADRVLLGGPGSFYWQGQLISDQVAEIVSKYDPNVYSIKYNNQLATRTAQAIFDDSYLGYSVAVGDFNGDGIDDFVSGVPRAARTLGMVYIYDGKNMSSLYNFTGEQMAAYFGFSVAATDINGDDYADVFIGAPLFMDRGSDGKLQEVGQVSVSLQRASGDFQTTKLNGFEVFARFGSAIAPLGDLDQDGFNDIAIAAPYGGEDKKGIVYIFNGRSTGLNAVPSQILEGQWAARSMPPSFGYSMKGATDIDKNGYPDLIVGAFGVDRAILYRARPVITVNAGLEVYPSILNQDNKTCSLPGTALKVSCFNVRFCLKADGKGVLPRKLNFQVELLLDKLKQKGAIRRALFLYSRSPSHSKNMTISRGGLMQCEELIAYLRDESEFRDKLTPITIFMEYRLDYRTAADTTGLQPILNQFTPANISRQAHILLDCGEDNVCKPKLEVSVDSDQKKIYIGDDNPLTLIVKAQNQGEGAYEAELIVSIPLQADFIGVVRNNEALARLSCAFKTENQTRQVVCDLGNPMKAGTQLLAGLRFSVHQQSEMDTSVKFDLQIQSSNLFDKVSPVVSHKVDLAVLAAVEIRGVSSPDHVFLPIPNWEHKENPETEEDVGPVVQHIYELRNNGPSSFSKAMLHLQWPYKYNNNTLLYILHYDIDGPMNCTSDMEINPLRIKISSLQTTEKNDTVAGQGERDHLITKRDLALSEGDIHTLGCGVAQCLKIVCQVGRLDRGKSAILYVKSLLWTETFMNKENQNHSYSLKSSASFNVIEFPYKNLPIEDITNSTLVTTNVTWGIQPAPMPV
T1 sequence (P18564 22-707, chain 2 of 2): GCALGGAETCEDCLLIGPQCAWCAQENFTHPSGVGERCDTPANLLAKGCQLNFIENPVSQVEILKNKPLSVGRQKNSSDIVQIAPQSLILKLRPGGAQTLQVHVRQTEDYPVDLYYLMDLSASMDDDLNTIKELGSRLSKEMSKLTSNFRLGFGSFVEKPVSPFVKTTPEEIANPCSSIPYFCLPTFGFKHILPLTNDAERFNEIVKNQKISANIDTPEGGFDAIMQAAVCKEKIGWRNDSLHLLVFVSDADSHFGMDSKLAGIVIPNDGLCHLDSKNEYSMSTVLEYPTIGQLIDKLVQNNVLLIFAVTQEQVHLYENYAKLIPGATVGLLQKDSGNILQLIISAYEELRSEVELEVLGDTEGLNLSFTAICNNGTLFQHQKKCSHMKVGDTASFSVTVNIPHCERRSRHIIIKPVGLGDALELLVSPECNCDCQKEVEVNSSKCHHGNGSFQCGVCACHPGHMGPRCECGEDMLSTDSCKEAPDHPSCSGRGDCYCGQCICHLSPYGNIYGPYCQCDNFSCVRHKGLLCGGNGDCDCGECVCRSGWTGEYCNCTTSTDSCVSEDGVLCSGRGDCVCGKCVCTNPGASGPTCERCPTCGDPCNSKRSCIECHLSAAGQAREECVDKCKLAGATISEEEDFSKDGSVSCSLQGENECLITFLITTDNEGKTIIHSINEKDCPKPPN
procedure_summary: competitive binding ELISA, purified integrin; competitor biotinylated natural ligand
*: point of attachment. Benzoyl(4-F) = O=C(c1ccc(F)cc1)*
endpoint_name: IC50 (nM)
Report the figure in nM without appending any unit label.

Q: // lookup IC50 for H-RGDLRELAK(Benzoyl(4-F))-NH2 (SMILES CC(C)C[C@H](NC(=O)[C@H](CCC(=O)O)NC(=O)[C@H](CCCNC(=N)N)NC(=O)[C@H](CC(C)C)NC(=O)[C@H](CC(=O)O)NC(=O)CNC(=O)[C@@H](N)CCCNC(=N)N)C(=O)N[C@@H](C)C(=O)N[C@@H](CCCCNC(=O)c1ccc(F)cc1)C(N)=O, free N-terminus; also called Peptide 5) [ST1-61, …(FB)]
A: 1.1

Q: Can you handle H-VGDLTYLKK(4‑fluorobenzoyl)-NH2 (free N-terminus; also called Peptide 1) [ST1-62, …(FB)] next?
A: 11

Q: Can you handle H-RGDLMKLAK(Benzoyl(4-F))-NH2 (SMILES CSCC[C@H](NC(=O)[C@H](CC(C)C)NC(=O)[C@H](CC(=O)O)NC(=O)CNC(=O)[C@@H](N)CCCNC(=N)N)C(=O)N[C@@H](CCCCN)C(=O)N[C@@H](CC(C)C)C(=O)N[C@@H](C)C(=O)N[C@@H](CCCCNC(=O)c1ccc(F)cc1)C(N)=O, free N-terminus; also called Peptide 2) [ST1-59, …(FB)] next?
A: 2.7

Q: Can you handle H-RGDLADLRK(Benzoyl(4-F))-NH2 (free N-terminus; also called Peptide 3) [ST1-60, …(FB)] next?
A: 4.7
